Each record here notes measured viability, T/C.
# Tested on: HOP-62 complex spheroids with HUVEC/MSC, viability
# procedure.text: Anticancer human tumor HOP-62 cell line growth inhibition [RAS];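 further: spheroids exposed to agents for seven days before readout; 100% = DMSO vehicle control viability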
# test.context: second compound 0.0949 µM; first compound 3.16 µM; active compounds read low
Output spec: scalar in %, unitless text.

Observe how each entry below is paired with its result.
compound: CCC(CC)c1cc(NC2CCC(N)C2)n2nccc2n1 (centres undefined) + CCn1c(-c2cc(N3CCN(C)CC3)cnc2C(C)OC)c2c3cc(ccc31)-c1csc(n1)CC(NC(=O)C1CC1C)C(=O)N1CCCC(N1)C(=O)OCC(C)(C)C2
assay.target: HOP-62 complex spheroids with HUVEC/MSC, viability
viability, T/C (%): 2.26
//
compound: NC1c2ccccc2OC12CCN(c1cnc3c(N4CCCc5ncccc54)n[nH]c3n1)CC2 (centres undefined) + CCn1c(-c2cc(N3CCN(C)CC3)cnc2C(C)OC)c2c3cc(ccc31)-c1csc(n1)CC(NC(=O)C1CC1C)C(=O)N1CCCC(N1)C(=O)OCC(C)(C)C2
assay.target: HOP-62 complex spheroids with HUVEC/MSC, viability
viability, T/C (%): 11.2
//
compound: CCC(CC)c1cc(NC2CCC(N)C2)n2nccc2n1 (centres undefined) + CCn1c(-c2cccnc2C(C)OC)c2c3cc(ccc31)N1CCOC(CC(NC(=O)C(C(C)C)N(C)C(=O)C3(F)CCN(C(=O)C#CC(C)(C)N(C)C)CC3)C(=O)N3CCCC(N3)C(=O)OCC(C)(C)C2)C1
assay.target: HOP-62 complex spheroids with HUVEC/MSC, viability
viability, T/C (%): 1.59

Consider the additional compound presented here.
[ask] Reported viability, T/C, compound C[C@@H](NC(=O)c1ncnc(N)c1Cl)c1ncc(C(=O)Nc2cc(C(F)(F)F)c(Cl)cn2)s1 + CCn1c(-c2cccnc2C(C)OC)c2c3cc(ccc31)N1CCOC(CC(NC(=O)C(C(C)C)N(C)C(=O)C3(F)CCN(C(=O)C#CC(C)(C)N(C)C)CC3)C(=O)N3CCCC(N3)C(=O)OCC(C)(C)C2)C1 : ____
[reply] 68.1

----------
# Tested on: HOP-62 complex spheroids with HUVEC/MSC, viability
# procedure.text: Anticancer human tumor HOP-62 cell line growth inhibition [RAS];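 further: spheroids exposed to agents for seven days before readout; 100% = DMSO vehicle control viability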
# test.context: second compound 0.1 µM; first compound 10 µM; active compounds read low
reported.metric: viability, T/C (%)
Output spec: scalar in %, unitless text.

compound: CC(Nc1ccc2c(c1)OCCn1cc(N3C(=O)OCC3C(F)F)nc1-2)C(N)=O (stereo not drawn) + C#Cc1c(F)ccc2cc(O)cc(-c3ncc4c(N5CC6CCC(C5)N6)nc(OCC56CCCN5CC(F)C6)nc4c3F)c12
viability, T/C [%]: 32.8
--
compound: CC(Nc1ccc2c(c1)OCCn1cc(N3C(=O)OCC3C(F)F)nc1-2)C(N)=O (stereo not drawn) + C=CC(=O)N1CCN(c2nc(OCC3CCCN3C)nc3c(F)c(-c4nc(N)cc(C)c4C(F)(F)F)c(Cl)cc23)C(C)C1
viability, T/C [%]: 15.7

[ask] Reported viability, T/C, compound C[C@@H](NC(=O)c1ncnc(N)c1Cl)c1ncc(C(=O)Nc2cc(C(F)(F)F)c(Cl)cn2)s1 + C=CC(=O)N1CCN(c2nc(OCC3CCCN3C)nc3c(F)c(-c4nc(N)cc(C)c4C(F)(F)F)c(Cl)cc23)C(C)C1 : ____
[reply] 47.6
